Data origin: patent US5362873A

target: DA2 receptor (Rattus norvegicus)
Sequence (P61169 whole entry): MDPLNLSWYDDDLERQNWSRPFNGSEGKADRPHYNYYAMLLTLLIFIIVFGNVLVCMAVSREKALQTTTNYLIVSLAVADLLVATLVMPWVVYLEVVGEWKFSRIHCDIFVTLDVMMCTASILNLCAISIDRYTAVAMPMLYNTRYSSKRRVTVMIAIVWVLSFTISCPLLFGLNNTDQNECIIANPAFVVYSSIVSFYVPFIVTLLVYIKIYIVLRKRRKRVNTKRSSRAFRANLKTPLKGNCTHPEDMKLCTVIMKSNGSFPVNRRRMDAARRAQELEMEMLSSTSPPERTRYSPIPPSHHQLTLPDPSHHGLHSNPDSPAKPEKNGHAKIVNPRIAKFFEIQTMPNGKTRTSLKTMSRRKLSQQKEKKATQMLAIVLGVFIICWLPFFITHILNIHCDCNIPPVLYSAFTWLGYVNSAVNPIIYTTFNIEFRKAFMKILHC
OBSERVED PROPERTY: Ki (µM)

INSERT INTO measurements (compound, reading_unit, recorded_value) VALUES
  ('CC(C)(C)c1ccc(C2=CCN(CCCNC(=O)N3CCCC3=O)CC2)cc1 [I a-6]', 'µM', 2.2),
  ('Cc1ccc(C2=CCN(CCCN(CC(C)C)CC(C)C)CC2)cc1 [I a-24]', 'µM', 1.1),
  ('CC1CCN(CCCN2CC=C(c3ccc(C(C)(C)C)cc3)CC2)CC1 [I a-56]', 'µM', 4.5),
  ('O=C1CCCN1C(=O)NCCCN1CC=C(c2ccc(C(F)(F)F)cc2)CC1 [I a-2]', 'µM', 4.7),
  ('CCCc1ccc(C2=CCN(CCCNC(=O)N3CCCC3=O)CC2)cc1 [I a-3]', 'µM', 4),
  ('O=C(CCCN1CC=C(c2ccc(C(F)(F)F)cc2)CC1)N1CCCC1=O [I a-9]', 'µM', 1.6);

====

target: PCP receptor; assay: PCP receptor binding ([3H]TCP); settings: [3H]TCP 5 nM, rat cortex tissue, pH 7.8, 25° C., 30 minutes
OBSERVED PROPERTY: Ki

INSERT INTO results (compound, observed_property, recorded_value) VALUES
  ('CC(C)(C)c1ccc(C2=CCN(CCCC(=O)N3CCCC3=O)CC2)cc1 [I a-8]', 'Ki', '> 62 µM'),
  ('CCCc1ccc(C2=CCN(CCCNC(=O)N3CCCC3=O)CC2)cc1 [I a-3]', 'Ki', '15 µM'),
  ('CC1CCN(CCCN2CC=C(c3ccc(C(C)(C)C)cc3)CC2)CC1 [I a-56]', 'Ki', '44 µM'),
  ('CC(C)(C)c1ccc(C2=CCN(CCCN3CCOCC3)CC2)cc1 [I a-35]', 'Ki', '18 µM'),
  ('Cc1ccc(C2=CCN(CCCN3CCOCC3)CC2)cc1 [I a-101]', 'Ki', '> 63 µM'),
  ('Cc1ccc(C2=CCN(CCCN3CCC(C)CC3)CC2)cc1 [I a-57]', 'Ki', '44 µM');

====

molecular target: 5HT2 receptor (Rattus norvegicus)
Sequence (P14842 whole entry): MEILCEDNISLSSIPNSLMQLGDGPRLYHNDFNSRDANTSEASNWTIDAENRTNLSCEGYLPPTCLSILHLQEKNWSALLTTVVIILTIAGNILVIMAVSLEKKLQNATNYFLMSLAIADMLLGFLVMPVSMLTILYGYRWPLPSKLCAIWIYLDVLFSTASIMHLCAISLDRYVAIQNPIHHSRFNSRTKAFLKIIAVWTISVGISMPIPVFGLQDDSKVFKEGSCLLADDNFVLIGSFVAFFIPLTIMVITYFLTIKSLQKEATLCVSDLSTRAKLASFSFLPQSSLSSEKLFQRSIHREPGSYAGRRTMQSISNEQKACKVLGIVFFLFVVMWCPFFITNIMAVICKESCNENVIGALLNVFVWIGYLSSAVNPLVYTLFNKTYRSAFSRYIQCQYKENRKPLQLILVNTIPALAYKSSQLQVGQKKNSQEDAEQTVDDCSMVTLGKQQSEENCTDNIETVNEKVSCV
pKi: −log10 of the molar value.
Respond with condition met for pKi values of 6 and above, condition not met for values below.

INSERT INTO assay_data (structure_notation, system_under_test, classification) VALUES
  ('CCCc1ccc(C2=CCN(CCCNC(=O)N3CCCC3=O)CC2)cc1', '5HT2 receptor (Rattus norvegicus)', 'condition not met'),
  ('FC(F)(F)c1ccc(C2=CCN(CCCOc3ccc(Cl)c(Cl)c3)CC2)cc1', '5HT2 receptor (Rattus norvegicus)', 'condition met'),
  ('O=C1CCCN1C(=O)NCCCN1CC=C(c2ccc(C(F)(F)F)cc2)CC1', '5HT2 receptor (Rattus norvegicus)', 'condition met'),
  ('CC(C)(C)c1ccc(C2=CCN(CCCC(=O)N3CCCC3=O)CC2)cc1', '5HT2 receptor (Rattus norvegicus)', 'condition not met'),
  ('CC(C)(C)c1ccc(C2=CCN(CCCNC(=O)N3CCCC3=O)CC2)cc1', '5HT2 receptor (Rattus norvegicus)', 'condition not met'),
  ('Cc1ccc(C2=CCN(CCCN(CC(C)C)CC(C)C)CC2)cc1', '5HT2 receptor (Rattus norvegicus)', 'condition met'),
  ('CC(C)(C)c1ccc(C2=CCN(CCCN3CCSCC3)CC2)cc1', '5HT2 receptor (Rattus norvegicus)', 'condition not met'),
  ('CC(C)(C)c1ccc(C2=CCN(CCCN3CCOCC3)CC2)cc1', '5HT2 receptor (Rattus norvegicus)', 'condition not met'),
  ('Cc1ccc(C2=CCN(CCCN3CCC(C)CC3)CC2)cc1', '5HT2 receptor (Rattus norvegicus)', 'condition met'),
  ('CC1CCN(CCCN2CC=C(c3ccc(C(C)(C)C)cc3)CC2)CC1', '5HT2 receptor (Rattus norvegicus)', 'condition not met'),
  ('CC(C)(C)c1ccc(C2=CCN(CCCNC(=O)N3CCCC3)CC2)cc1', '5HT2 receptor (Rattus norvegicus)', 'condition not met');

====

Quick record of pKi values for DA2 receptor (Rattus norvegicus, UniProt P61169).
pKi: −log10 of the molar value.
OBSERVED PROPERTY: pKi

INSERT INTO assay_data (structure_notation, observed_property, recorded_value) VALUES
  ('FC(F)(F)c1ccc(C2=CCN(CCCOc3ccc(Cl)c(Cl)c3)CC2)cc1', 'pKi', 6.20),
  ('O=C1CCCN1C(=O)NCCCCCN1CC=C(c2ccc(C(F)(F)F)cc2)CC1', 'pKi', 6.49),
  ('CC(C)(C)c1ccc(C2=CCN(CCCN3CCOCC3)CC2)cc1', 'pKi', 5.34),
  ('CNCCCN1CC=C(c2ccc(C(C)(C)C)cc2)CC1', 'pKi', 5.70),
  ('CC(C)(C)c1ccc(C2=CCN(CCCN3CCSCC3)CC2)cc1', 'pKi', 5.85),
  ('CC(C)(C)c1ccc(C2=CCN(CCCNC(=O)N3CCCC3)CC2)cc1', 'pKi', 5.35),
  ('Cc1ccc(C2=CCN(CCCN3CCOCC3)CC2)cc1', 'pKi', 5.74),
  ('Cc1ccc(C2=CCN(CCCN3CCC(C)CC3)CC2)cc1', 'pKi', 5.62),
  ('CC(C)(C)c1ccc(C2=CCN(CCCC(=O)N3CCCC3=O)CC2)cc1', 'pKi', 5.92),
  ('Clc1ccc(C2=CCN(CCCN3CCOCC3)CC2)cc1', 'pKi', 5.49);

====

Below, each entry is listed with its recorded Ki.
biological target: PCP receptor; assay: PCP receptor binding ([3H]TCP); settings: [3H]TCP 5 nM, rat cortex tissue, pH 7.8, 25° C., 30 minutes
OBSERVED PROPERTY: Ki (µM)

INSERT INTO results (compound, observed_property, comparison_operator, recorded_value) VALUES
  ('CC(C)(C)c1ccc(C2=CCN(CCCN3CCSCC3)CC2)cc1 [I a-94]', 'Ki', '=', 27),
  ('CC(C)(C)c1ccc(C2=CCN(CCCNC(=O)N3CCCC3)CC2)cc1 [I a-11]', 'Ki', '=', 23),
  ('FC(F)(F)c1ccc(C2=CCN(CCCOc3ccc(Cl)c(Cl)c3)CC2)cc1 [I a-111]', 'Ki', '>', 63),
  ('Clc1ccc(C2=CCN(CCCN3CCOCC3)CC2)cc1 [I a-102]', 'Ki', '>', 71),
  ('O=C(CCCN1CC=C(c2ccc(C(F)(F)F)cc2)CC1)N1CCCC1=O [I a-9]', 'Ki', '=', 33),
  ('CC(C)(C)c1ccc(C2=CCN(CCCNC(=O)N3CCCC3=O)CC2)cc1 [I a-6]', 'Ki', '=', 49),
  ('O=C1CCCN1C(=O)NCCCCCN1CC=C(c2ccc(C(F)(F)F)cc2)CC1 [I a-13]', 'Ki', '=', 26),
  ('O=C1CCCN1C(=O)NCCCN1CC=C(c2ccc(C(F)(F)F)cc2)CC1 [I a-2]', 'Ki', '=', 31),
  ('CNCCCN1CC=C(c2ccc(C(C)(C)C)cc2)CC1 [I a-30]', 'Ki', '>', 63),
  ('Cc1ccc(C2=CCN(CCCN(CC(C)C)CC(C)C)CC2)cc1 [I a-24]', 'Ki', '=', 32);

====

Quick record of Ki values for 5HT2 receptor (Rattus norvegicus).
OBSERVED PROPERTY: Ki (µM)

INSERT INTO assay_data (structure_notation, observed_property, reading_unit, recorded_value) VALUES
  ('Clc1ccc(C2=CCN(CCCN3CCOCC3)CC2)cc1', 'Ki', 'µM', 5.7),
  ('CNCCCN1CC=C(c2ccc(C(C)(C)C)cc2)CC1', 'Ki', 'µM', 3.7),
  ('O=C1CCCN1C(=O)NCCCCCN1CC=C(c2ccc(C(F)(F)F)cc2)CC1', 'Ki', 'µM', 0.77),
  ('Cc1ccc(C2=CCN(CCCN3CCOCC3)CC2)cc1', 'Ki', 'µM', 7.7),
  ('O=C(CCCN1CC=C(c2ccc(C(F)(F)F)cc2)CC1)N1CCCC1=O', 'Ki', 'µM', 1.2);

====

Below, each entry is listed with its recorded pKi.
biological target: σ receptor; experiment: σ receptor binding ([3H]3PPP); settings: [3H]3PPP 5 nM, rat cortex tissue, pH 7.8, 25° C., 90 minutes
pKi: −log10 of the molar value.
OBSERVED PROPERTY: pKi

INSERT INTO assay_data (compound, system_under_test, recorded_value) VALUES
  ('CC(C)(C)c1ccc(C2=CCN(CCCN3CCOCC3)CC2)cc1 [I a-35]', 'σ receptor', 8.74),
  ('FC(F)(F)c1ccc(C2=CCN(CCCOc3ccc(Cl)c(Cl)c3)CC2)cc1 [I a-111]', 'σ receptor', 8.54),
  ('Cc1ccc(C2=CCN(CCCN3CCC(C)CC3)CC2)cc1 [I a-57]', 'σ receptor', 8.20),
  ('CC(C)(C)c1ccc(C2=CCN(CCCN3CCSCC3)CC2)cc1 [I a-94]', 'σ receptor', 8.89),
  ('O=C1CCCN1C(=O)NCCCCCN1CC=C(c2ccc(C(F)(F)F)cc2)CC1 [I a-13]', 'σ receptor', 8.66),
  ('Clc1ccc(C2=CCN(CCCN3CCOCC3)CC2)cc1 [I a-102]', 'σ receptor', 9.15),
  ('CNCCCN1CC=C(c2ccc(C(C)(C)C)cc2)CC1 [I a-30]', 'σ receptor', 8.89),
  ('Cc1ccc(C2=CCN(CCCN3CCOCC3)CC2)cc1 [I a-101]', 'σ receptor', 9.51),
  ('CCCc1ccc(C2=CCN(CCCNC(=O)N3CCCC3=O)CC2)cc1 [I a-3]', 'σ receptor', 8.02),
  ('CC(C)(C)c1ccc(C2=CCN(CCCC(=O)N3CCCC3=O)CC2)cc1 [I a-8]', 'σ receptor', 8.89),
  ('Cc1ccc(C2=CCN(CCCN(CC(C)C)CC(C)C)CC2)cc1 [I a-24]', 'σ receptor', 8.24),
  ('CC1CCN(CCCN2CC=C(c3ccc(C(C)(C)C)cc3)CC2)CC1 [I a-56]', 'σ receptor', 8.19),
  ('O=C(CCCN1CC=C(c2ccc(C(F)(F)F)cc2)CC1)N1CCCC1=O [I a-9]', 'σ receptor', 8.21),
  ('O=C1CCCN1C(=O)NCCCN1CC=C(c2ccc(C(F)(F)F)cc2)CC1 [I a-2]', 'σ receptor', 8.39),
  ('CC(C)(C)c1ccc(C2=CCN(CCCNC(=O)N3CCCC3=O)CC2)cc1 [I a-6]', 'σ receptor', 8.57),
  ('CC(C)(C)c1ccc(C2=CCN(CCCNC(=O)N3CCCC3)CC2)cc1 [I a-11]', 'σ receptor', 8.59);
